# TESTED_SYSTEM: GPR183 (Homo sapiens)
# Sequence (P32249 whole entry): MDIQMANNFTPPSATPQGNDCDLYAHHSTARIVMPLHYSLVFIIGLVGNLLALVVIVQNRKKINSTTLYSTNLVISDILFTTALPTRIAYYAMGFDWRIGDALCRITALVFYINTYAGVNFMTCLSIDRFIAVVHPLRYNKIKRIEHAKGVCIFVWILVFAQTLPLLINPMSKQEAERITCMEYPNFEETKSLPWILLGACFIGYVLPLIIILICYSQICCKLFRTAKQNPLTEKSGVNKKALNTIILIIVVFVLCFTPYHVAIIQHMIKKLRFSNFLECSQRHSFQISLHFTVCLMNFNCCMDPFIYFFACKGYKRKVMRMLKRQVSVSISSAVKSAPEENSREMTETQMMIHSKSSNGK
# Type: cell-based
# Parameters: hemagglutinin signal peptide (upstream of the FLAG tag) (N); expressed in transfected cells; host or cells: CHO-K1 (ATCC CCL-61), transient lipofection, modified pcDNA3 vector
MEASURED_ATTRIBUTE: pEC50
# pEC50 is unitless: minus log10 of the molar concentration; print number only

Lab note: measured pEC50 of C[C@H](CCCC(C)(C)O)[C@H]1CC[C@H]2[C@@H]3[C@H](O)C=C4C[C@@H](O)CC[C@]4(C)[C@H]3CC[C@]12C [Compound 1, 7α,25‐dihydroxycholesterol, reference compound] was 7.77
